Biological target: Casein kinase I isoform gamma-3 (Homo sapiens)
Experiment: CSNK1G3 binders by thermal stabilization, biophysical, DSF, SYPRO orange, recombinant protein (AID 385)
Settings: at 10 µM, protein 2 µM, buffer 10 mM HEPES, pH 7.5, NaCl 150 mM, active compounds read high
measured-attribute: Tm shift

* NC(=O)c1ccc(-c2nc(-c3ccc4c(c3)OCCO4)c(-c3ccccn3)[nH]2)cc1 | 6.7 C
* N#C/C(=C1\Nc2ccccc2S1)c1ccnc(NCCc2cccnc2)n1 | 3.5 C
* COc1ccc(Nc2nc(N)c(C(=O)c3ccc(Cl)cc3)s2)cc1 | 3.1 C
* Nc1nc(Nc2cccc(Cl)c2)sc1C(=O)c1ccc(F)cc1 | 4.8 C
* Nc1nc(Nc2ccc(S(N)(=O)=O)cc2)nn1C(=S)Nc1c(F)cccc1F | 5.4 C
* Nc1nc(Nc2ccccc2)sc1C(=O)c1ccc(F)cc1 | 3.3 C
* Nc1nc(Nc2ccccc2F)sc1C(=O)c1ccc(Br)cc1 | 3.4 C
* Nc1nc(Nc2ccc(F)cc2)sc1C(=O)c1ccccc1 | 3.5 C
* CCN(CC)CCNC(=O)c1c(C)[nH]c(/C=C2\C(=O)Nc3ccc(Cl)cc32)c1C | 4 C
* CCn1cnc2c(Nc3cccc(Cl)c3)nc(N[C@@H]3CCCC[C@@H]3N)nc21 | 5.5 C
* O=Nc1c(-c2c(O)[nH]c3ccc(S(O)(O)O)cc23)[nH]c2ccccc12 | 3.8 C
* CSc1nc(-c2ccnc(NC(C)c3ccccc3)c2)c(-c2ccc(F)cc2)[nH]1 (stereo unspecified) | 3.5 C
* CC(C)n1cnc2c(Nc3cccc(Cl)c3)nc(NCCO)nc21 | 7 C
* O=c1[nH]c(O)c2c1c1c3ccccc3nc1n1cncc21 | 3.5 C
* COc1ccc(Nc2nc(N)c(C(=O)c3ccc(OC)cc3)s2)cc1 | 4.9 C
* NC1=N/C(=C2/CCNC(=O)c3[nH]c(Br)cc32)C(=O)N1 | 3.5 C
